system: mice; experiment: Acetic acid induced writhing test (AA writhing test); assay type: in vivo; conditions: 30sc, 0.8% acetic acid i.p. 30 min later, vs control group
Returns true (1) if the recorded Reduction % at 30sc (number of writhing) is greater than or equal to 70%, and false (0) otherwise.

-- ask Is the recorded value of Reduction % at 30sc (number of writhing) equal to or greater than 70% for this compound? Clc1ccc([C@@H]([C@@H]2CCCNC2)n2ncnn2)cc1Cl [Example 15]
-- reply false (0)

-- ask Quick check, Reduction % at 30sc (number of writhing) >= 70%? Fc1ccc2cc([C@@H]([C@@H]3CCCNC3)n3ncnn3)ccc2c1 [Example 83]
-- reply true (1)

-- ask Does Reduction % at 30sc (number of writhing) meet or surpass 70% for Fc1ccc2cc([C@H]([C@H]3CCCNC3)n3ncnn3)ccc2c1 [Example 71] ?
-- reply false (0)

-- ask Determine whether measured Reduction % at 30sc (number of writhing) meets or exceeds 70% for Cc1nnn([C@@H](c2ccc3ccccc3c2)[C@@H]2CCCNC2)n1 [Example 12]
-- reply false (0)
